- test-system: Perilipin-1 (Homo sapiens) + 1-acylglycerol-3-phosphate O-acyltransferase ABHD5 (Homo sapiens) (UniProt O60240+Q8WTS1)
- Sequence (O60240 whole entry, looked up): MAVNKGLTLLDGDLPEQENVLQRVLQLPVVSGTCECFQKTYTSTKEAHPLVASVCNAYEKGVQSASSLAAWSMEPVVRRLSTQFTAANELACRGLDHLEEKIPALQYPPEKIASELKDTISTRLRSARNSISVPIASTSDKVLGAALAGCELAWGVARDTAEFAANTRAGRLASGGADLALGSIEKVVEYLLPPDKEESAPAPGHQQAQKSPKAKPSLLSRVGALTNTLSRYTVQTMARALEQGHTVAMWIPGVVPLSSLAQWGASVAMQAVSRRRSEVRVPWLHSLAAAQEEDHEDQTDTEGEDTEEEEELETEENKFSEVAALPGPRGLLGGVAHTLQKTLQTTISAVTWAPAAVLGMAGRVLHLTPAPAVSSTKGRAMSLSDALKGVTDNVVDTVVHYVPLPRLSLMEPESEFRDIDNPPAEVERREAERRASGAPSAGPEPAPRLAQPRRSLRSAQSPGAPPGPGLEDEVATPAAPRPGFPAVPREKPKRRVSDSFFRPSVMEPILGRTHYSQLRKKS
- Sequence (Q8WTS1 whole entry, looked up): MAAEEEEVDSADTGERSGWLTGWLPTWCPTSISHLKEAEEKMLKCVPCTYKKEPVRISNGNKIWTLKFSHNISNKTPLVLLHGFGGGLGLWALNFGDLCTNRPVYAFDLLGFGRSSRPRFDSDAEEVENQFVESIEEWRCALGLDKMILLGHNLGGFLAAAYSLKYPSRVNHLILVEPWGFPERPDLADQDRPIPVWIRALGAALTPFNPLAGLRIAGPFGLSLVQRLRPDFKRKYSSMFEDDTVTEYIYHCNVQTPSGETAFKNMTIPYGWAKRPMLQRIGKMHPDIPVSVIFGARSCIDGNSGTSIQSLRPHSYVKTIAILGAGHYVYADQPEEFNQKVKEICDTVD
- assay-notes: ABHD5-PLIN1 interaction inhibitors, pilot screen, cell lysate, split luciferase complementation, luminescence, NIH validation set (AID 493027);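 further: 0% = DMSO wells with the 100% control not disclosed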
- condition-info: split G. princeps luciferase complementation, 4 h; at 7.9 µM, hits give high values
In all, about 2,000 compounds went through this assay and about 45 (2%) were called active. Many of the other results were omitted from the sample, so actives are more common in it than they were.

{"compound": "COc1ccc(/C=C2\\CCn3c2nc2cc(C(=O)O)ccc2c3=O)cc1OC", "inhibition [%]": -6.3}
{"compound": "CCOC(=O)C1=C(C)NC(C)=C(C(=O)OC)C1c1cccc([N+](=O)[O-])c1 (stereo unspecified)", "inhibition [%]": 8.95}
{"compound": "N#C/C(=C\\c1ccc(O)c(O)c1)C(=O)NCCCc1ccccc1", "inhibition [%]": 37.9}
{"compound": "Cc1nc(C)c(C)nc1C", "inhibition [%]": -2.64}
{"compound": "N#C/C(=C/c1ccccc1)C(=O)NCc1ccccc1", "inhibition [%]": 53.3}
{"compound": "COc1ccc(/C=C2\\CC/C(=C\\c3ccc(OC)c(OC)c3)C2=O)cc1OC", "inhibition [%]": 59.1}

* * *

# inhibition values compiled below
- test-system: Perilipin-1 (Homo sapiens) + 1-acylglycerol-3-phosphate O-acyltransferase ABHD5 (Homo sapiens) (UniProt O60240+Q8WTS1)
- assay-notes: ABHD5-PLIN1 interaction inhibitors, pilot screen, cell lysate, split luciferase complementation, luminescence, NIH validation set (AID 493027);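 further: 0% = DMSO wells with the 100% control not disclosed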
- condition-info: split G. princeps luciferase complementation, 4 h; at 7.9 µM, hits give high values
Screen size: about 2,000 compounds; about 45 (2%) were called active. This excerpt belongs to a sample that is enriched for actives.

{"compound": "Cc1ccc2[nH]c3c(c2c1)CCNC3=O", "inhibition / %": -4.86}
{"compound": "CS(=O)(=O)Oc1ccc2c(c1)O/C(=C\\C=C\\c1ccccc1)C2=O", "inhibition / %": 58.8}
{"compound": "COc1ccc(C(=O)Nc2ccc(OC)c([N+](=O)[O-])c2)cc1Br", "inhibition / %": 0.74}
{"compound": "CCCOc1ccc(-c2cc(C(=O)NCC3CCCO3)c3ccccc3n2)cc1 (stereo unspecified)", "inhibition / %": -2.49}
{"compound": "CCc1cc2c(=O)c(-c3nc(C)cs3)coc2cc1OC(C)C(=O)NCCO (stereo unspecified)", "inhibition / %": -3.43}
{"compound": "COc1ccc(CCN=C(N)C(C)c2ccccc2)cc1OC (stereo unspecified)", "inhibition / %": -12.2}

* * *

inhibition values by entry
- test-system: Perilipin-1 (Homo sapiens) + 1-acylglycerol-3-phosphate O-acyltransferase ABHD5 (Homo sapiens) (UniProt O60240+Q8WTS1)
- assay-notes: ABHD5-PLIN1 interaction inhibitors, pilot screen, cell lysate, split luciferase complementation, luminescence, NIH validation set (AID 493027);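 further: 0% = DMSO wells with the 100% control not disclosed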
- condition-info: split G. princeps luciferase complementation, 4 h; at 7.9 µM, hits give high values
In all, about 2,000 compounds went through this assay and about 45 (2%) were called active. Shown is part of a subset that was picked to be rich in actives.

{"molecule": "CC(=O)Nc1ccc(CN2CCN(C3CCCCC3)C(CCO)C2)cc1 (stereo unspecified)", "inhibition, %": -3.02}
{"molecule": "COc1ccc(NC(=O)C2CCCN2C(=O)OC(C)(C)C)cc1 (stereo unspecified)", "inhibition, %": -11.3}
{"molecule": "O=C(Cc1ccccc1[N+](=O)[O-])NCCCN1CCOCC1", "inhibition, %": -7.14}
{"molecule": "CC(=O)Oc1ccc2occ(/C=N/c3cc(=O)[nH]c(=S)[nH]3)c(=O)c2c1", "inhibition, %": -1.72}
{"molecule": "COc1cc(OC)c(C2C(C#N)=C(N)OC3=C2C(=O)CC(C)(C)C3)cc1OC (stereo unspecified)", "inhibition, %": -0.37}
{"molecule": "COc1ccc(C(=O)Oc2ccc3c(C)cc(=O)oc3c2C(C)=O)cc1", "inhibition, %": 0.69}
{"molecule": "COc1ccc(CCN(C)CC(=O)Nc2cc(C)nc3ccccc23)cc1OC", "inhibition, %": 3.27}
{"molecule": "COc1ccccc1NC(=O)C12CCC(C)(C(=O)C1)C2(C)C (stereo unspecified)", "inhibition, %": -0.67}
{"molecule": "COc1cccc(OCc2cc(C3Nc4ccccc4C(=O)N3Cc3ccco3)ccc2OC)c1 (stereo unspecified)", "inhibition, %": 42.9}
{"molecule": "CCN(CCCCCN(C)C)Cc1cc2ccccc2o1", "inhibition, %": -7.75}
{"molecule": "COc1ccc(/C=C\\C(=O)c2c(O)ccc3c(C)cc(=O)oc23)cc1OC", "inhibition, %": 62.7}
